Recorded pKi values for a group of molecules are listed next.
Target chain: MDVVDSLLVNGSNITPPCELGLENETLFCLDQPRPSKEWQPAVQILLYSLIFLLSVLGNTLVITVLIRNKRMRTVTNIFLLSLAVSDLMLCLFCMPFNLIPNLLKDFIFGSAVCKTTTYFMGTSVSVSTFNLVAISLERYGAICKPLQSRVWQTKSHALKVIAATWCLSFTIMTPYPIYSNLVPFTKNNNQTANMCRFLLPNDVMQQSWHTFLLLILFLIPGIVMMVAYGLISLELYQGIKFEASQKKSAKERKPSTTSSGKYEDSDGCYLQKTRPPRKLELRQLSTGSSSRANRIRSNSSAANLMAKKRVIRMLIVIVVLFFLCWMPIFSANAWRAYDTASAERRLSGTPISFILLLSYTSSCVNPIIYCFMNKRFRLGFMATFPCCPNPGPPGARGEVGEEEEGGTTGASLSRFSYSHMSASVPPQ
pKi: −log10 of the molar value.

{"Molecule": "O=C(NCCc1ccccc1)c1ccc(Cl)cc1NS(=O)(=O)c1cccc2nsnc12", "Inequality sign": "=", "pKi": 6.80}
{"Molecule": "O=C(N[C@H](Cc1ccccc1)C(=O)O)c1ccc(Cl)cc1NS(=O)(=O)c1cccc2nsnc12", "Inequality sign": "=", "pKi": 5.50}
{"Molecule": "O=C(NCc1ccccc1)c1ccc(Cl)cc1NS(=O)(=O)c1cccc2nsnc12", "Inequality sign": "<", "pKi": 5.00}
{"Molecule": "O=C(N[C@H](C(=O)O)C(c1ccc(Cl)cc1)c1ccc(Cl)cc1)c1ccc(Cl)cc1NS(=O)(=O)c1cccc2nsnc12", "Inequality sign": "<", "pKi": 5.00}
{"Molecule": "O=C(NCCc1ccccc1)c1ccc(Br)cc1NS(=O)(=O)c1cccc2nsnc12", "Inequality sign": "=", "pKi": 6.40}
{"Molecule": "CC(CNC(=O)c1ccc(Cl)cc1NS(=O)(=O)c1cccc2nsnc12)c1ccc(Cl)cc1 (racemic)", "Inequality sign": "=", "pKi": 7.00}

* * *

pKi: −log10 of the molar value.
// Gastrin/cholecystokinin type B receptor (Homo sapiens) pKi records

{"Smiles code": "CC(C)(c1ccc(Cl)cc1)[C@H](NC(=O)c1ccc(Cl)cc1NS(=O)(=O)c1cccc2nsnc12)C(=O)O", "Study target": "Gastrin/cholecystokinin type B receptor (Homo sapiens)", "Inequality sign": "=", "pKi": 6.00}
{"Smiles code": "CN(CCc1ccccc1)C(=O)c1ccc(Cl)cc1NS(=O)(=O)c1cccc2nsnc12", "Study target": "Gastrin/cholecystokinin type B receptor (Homo sapiens)", "Inequality sign": "=", "pKi": 6.50}
{"Smiles code": "C[C@H](c1ccc(Cl)c(Cl)c1)[C@@H](NC(=O)c1ccc(Cl)cc1NS(=O)(=O)c1cccc2nsnc12)C(=O)O", "Study target": "Gastrin/cholecystokinin type B receptor (Homo sapiens)", "Inequality sign": "=", "pKi": 5.80}
{"Smiles code": "O=C(N[C@@H](Cc1ccc(Cl)cc1)C(=O)O)c1ccc(Cl)cc1NS(=O)(=O)c1cccc2nsnc12", "Study target": "Gastrin/cholecystokinin type B receptor (Homo sapiens)", "Inequality sign": "=", "pKi": 7.20}
{"Smiles code": "O=C(NCCc1ccc(Cl)cc1)c1ccc(Cl)cc1NS(=O)(=O)c1cccc2nsnc12", "Study target": "Gastrin/cholecystokinin type B receptor (Homo sapiens)", "Inequality sign": "<", "pKi": 5.00}
